# Test system: experimental allergic encephalomyelitis (EAE) in (SJL/JxBALB/c)FI mice
# assay: Blocking of experimental allergic encephalomyelitis by injection with complete adjuvant
# Type: in vivo, mouse
# condition: blocking of EAE versus control without antigen
# Excerpt: Blocking of Experimental Allergic Encephalomyelitis—To test the physiological activity of TV-markers, protection from experimental allergic encephalomyelitis (EAE) was investigated in mice. […] EAE blocking by injection with complete adjuvant—Each antigen being tested was included in the encephalitogenic inoculum. […] Disease intensity is scored daily in mice with a score of zero (0=healthy) to five (5=dead).
value.kind: % Blocking
Answer with the value and then the unit.

Known results for molecules:
# molecule, value.kind, data.value
rows = [
    ("AKKYAKKEKAYAKKAEKAAKKAEAKAYKAAEAKKKAKAEAKKYAKAAKAEKKEYAAAEAKYKAEAAKAAAKEAAYEA (peptide) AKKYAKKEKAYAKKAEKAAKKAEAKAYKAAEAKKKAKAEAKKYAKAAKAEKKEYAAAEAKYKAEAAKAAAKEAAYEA", "% Blocking", "89%"),
    ("AKKYAKKEKAYAKKAEKAAKKAEAKAYKAAEAKKKAKAEAKKYAKAAKAEKKEYAAAEAKYKAEAAKKAYKAEAAKAAAKEAAYEA (peptide) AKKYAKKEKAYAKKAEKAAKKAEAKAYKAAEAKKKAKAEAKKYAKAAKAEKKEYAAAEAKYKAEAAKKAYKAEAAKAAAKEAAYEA", "% Blocking", "70%"),
    ("AKKYAKKEKAYAKAKKAEAKAAKKAKAEAKKYAKAAKAEKKEYAAAEAKYKAEAAKAAAKEAAYEA (peptide) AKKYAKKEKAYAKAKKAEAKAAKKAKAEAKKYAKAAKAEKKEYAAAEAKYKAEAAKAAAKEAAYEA", "% Blocking", "40%"),
]

Ask: What value of % Blocking has been recorded for this entry: AKKYAKKAEKAYAKKAKAAKEKKAYAKKEAKAYKAAEAKKKAKAEAKKYAKEAAKAKKEAYKAEAKKYAKAAKAEKKEYAAAEAKKAEAAKAYKAEAAKAAAKEAAYEA (reversed-phase fraction 2 used for calibration) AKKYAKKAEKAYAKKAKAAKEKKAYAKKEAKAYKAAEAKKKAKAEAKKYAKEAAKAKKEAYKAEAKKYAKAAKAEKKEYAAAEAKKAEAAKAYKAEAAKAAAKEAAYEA
Result: 100%

Origin of values: patent US6514938B1
